System: Human alphaherpesvirus 2
experimental protocol: Antiviral activity against HSV2-infected Vero cells
Assay type: functional, organism-based
run conditions: Human alphaherpesvirus 2, Vero
readout: IC50 (nM)

compound: O=C(Nc1ccccn1)c1ccc2[nH]c(-c3ccc(NC(=O)C45CC6CC(CC(C6)C4)C5)cc3F)nc2c1
readout: IC50
quantity unit: nM
value relation sign: =
numeric value: 150
--
compound: O=C(Nc1cc2nc(-c3ccc(NC(=O)C45CC6CC(CC(C6)C4)C5)cc3)[nH]c2cn1)c1ccccn1
readout: IC50
quantity unit: nM
value relation sign: =
numeric value: 75
--
compound: O=C(Nc1ccc(-c2nc3cc(NC(=O)C45CC6CC(CC(C6)C4)C5)ncc3[nH]2)cc1)C12CC3CC(C1)C(O)C(C3)C2 (configuration not stated)
readout: IC50
quantity unit: nM
value relation sign: =
numeric value: 60
--
compound: O=C(Nc1ccc(-c2nc3cc(C(=O)NC45CC6CC(C4)C(=O)C(C6)C5)ncc3[nH]2)cc1)c1ccc(Cl)cc1
readout: IC50
quantity unit: nM
value relation sign: =
numeric value: 40
--
compound: O=C(NC12CC3CC(C1)C(=O)C(C3)C2)c1cc2nc(-c3ccc(NC(=O)C45CC6CC(CC(O)(C6)C4)C5)cc3)[nH]c2cn1
readout: IC50
quantity unit: nM
value relation sign: >
numeric value: 2000
--
compound: O=C1C2CC3CC1CC(C(=O)Nc1ccc(-c4nc5cc(NC(=O)C67CC8CC(C6)C(=O)C(C8)C7)ncc5[nH]4)cc1)(C3)C2
readout: IC50
quantity unit: nM
value relation sign: >
numeric value: 2000
--
compound: O=C(Nc1ccc(-c2nc3cc(C(=O)NC45CC6CC(CC(C6)C4)C5)ccc3[nH]2)cc1)c1ccc(Cl)c(Cl)c1
readout: IC50
quantity unit: nM
value relation sign: =
numeric value: 20
